Tested on: PC-3
PROTOCOL_NOTES: Antiproliferative activity against human PC-3 cells assessed as inhibition of cell proliferation by MTT assay
Format: functional, cell-based
MEASUREMENT_NAME: IC50 (µM)
# value in µM; strip the unit string

CC1(C)CCC[C@](C)([C@@H]2CC[C@]3(C)[C@@H]2[C@H](O)C[C@H]2[C@@]4(C)CC[C@H](OC(=O)CSc5nc(-c6cccc(O)c6)c(C#N)c(=O)[nH]5)C(C)(C)[C@@H]4CC[C@]23C)O1	20.8
CC1(C)CCC[C@](C)([C@@H]2CC[C@]3(C)[C@@H]2[C@H](O)CC2[C@@]4(C)CC[C@H](OC(=O)CSc5nc(-c6ccc(F)cc6)c(C#N)c(=O)[nH]5)C(C)(C)[C@@H]4CC[C@]23C)O1 (stereo not given in full)	7.82
COc1cccc(-c2nc(SCC(=O)O[C@H]3CC[C@]4(C)[C@H]5C[C@@H](O)[C@@H]6[C@H]([C@@]7(C)CCCC(C)(C)O7)CC[C@@]6(C)[C@]5(C)CC[C@H]4C3(C)C)[nH]c(=O)c2C#N)c1	8.98
CC1(C)CCC[C@](C)([C@@H]2CC[C@]3(C)[C@@H]2[C@H](O)CC2[C@@]4(C)CC[C@H](OC(=O)CSc5nc(-c6cccc(Br)c6)c(C#N)c(=O)[nH]5)C(C)(C)[C@@H]4CC[C@]23C)O1 (stereo not given in full)	6.53

# input for lookup
# lookup: IC50 of CC1(C)CCC[C@](C)([C@@H]2CC[C@]3(C)[C@@H]2[C@H](O)C[C@H]2[C@@]4(C)CC[C@H](O)C(C)(C)[C@@H]4CC[C@]23C)O1
68.3
